Kindly supply the reported pIC50 values for the records listed here.
Molecular target: PI3Kγ (p110γ) Recombinant Human Protein (Homo sapiens (Human))
Sequence (P48736 whole entry): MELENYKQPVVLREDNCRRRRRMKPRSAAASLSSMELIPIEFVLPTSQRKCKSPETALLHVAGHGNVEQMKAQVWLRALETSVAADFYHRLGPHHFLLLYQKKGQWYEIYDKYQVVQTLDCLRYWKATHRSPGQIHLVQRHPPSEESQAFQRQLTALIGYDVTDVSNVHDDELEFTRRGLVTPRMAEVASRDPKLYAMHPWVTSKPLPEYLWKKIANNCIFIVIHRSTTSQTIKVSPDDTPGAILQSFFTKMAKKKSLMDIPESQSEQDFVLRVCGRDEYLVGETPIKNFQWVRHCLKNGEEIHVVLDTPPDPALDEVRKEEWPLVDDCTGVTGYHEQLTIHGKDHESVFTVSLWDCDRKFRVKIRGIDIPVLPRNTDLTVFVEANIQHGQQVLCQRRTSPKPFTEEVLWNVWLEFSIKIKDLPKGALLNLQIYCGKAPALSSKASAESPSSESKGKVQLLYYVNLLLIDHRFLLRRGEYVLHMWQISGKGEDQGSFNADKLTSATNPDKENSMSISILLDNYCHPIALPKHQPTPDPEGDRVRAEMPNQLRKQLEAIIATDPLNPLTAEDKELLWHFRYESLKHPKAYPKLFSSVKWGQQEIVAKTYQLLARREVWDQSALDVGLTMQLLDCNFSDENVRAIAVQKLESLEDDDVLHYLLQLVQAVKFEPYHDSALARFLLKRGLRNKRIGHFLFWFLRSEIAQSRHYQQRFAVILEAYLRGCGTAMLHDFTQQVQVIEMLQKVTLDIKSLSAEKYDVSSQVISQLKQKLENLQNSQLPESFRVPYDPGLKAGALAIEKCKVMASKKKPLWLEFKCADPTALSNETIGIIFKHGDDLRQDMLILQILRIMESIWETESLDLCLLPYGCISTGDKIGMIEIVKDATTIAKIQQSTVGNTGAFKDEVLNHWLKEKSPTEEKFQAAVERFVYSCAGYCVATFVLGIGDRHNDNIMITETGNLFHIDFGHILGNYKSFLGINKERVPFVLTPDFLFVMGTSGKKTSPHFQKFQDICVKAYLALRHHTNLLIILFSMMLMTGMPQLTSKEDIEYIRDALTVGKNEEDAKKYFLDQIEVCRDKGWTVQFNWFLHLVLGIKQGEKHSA
Assay: PI3K-γ scintillation proximity assay
Conditions: 2 μM ATP, 20 μM PIP2
pIC50: −log10 of the molar value. Where a name gives a salt, the structure may show the parent alone.

Item: CC(NC(=O)c1c(N)nn2cccnc12)c1cc(Cl)c2cn[nH]c2c1C1=CCC(C#N)CC1 (stereo not shown) [Example 101, trifluoroacetate] | pIC50: > 7.00

Field pIC50 (entry CC(NC(=O)c1c(N)nn2cccnc12)c1cc(Cl)c2cncn2c1N1CCS(=N)(=O)CC1 (stereo not shown) ) reads > 7.00

In plain terms, CC(NC(=O)c1c(N)nn2cccnc12)c1cc(Cl)c2cncn2c1N1CCNS(=O)(=O)CC1 (racemic) has a documented pIC50 of > 7.00

Sample Cc1nc(C(F)(F)F)c2c(Cl)cc(C(C)NC(=O)c3c(N)nn4cccnc34)c(-c3ccccc3)n12 (racemic) [Example 124, trifluoroacetate salt] ; pIC50 observed: > 6.30

molecule CC(NC(=O)c1c(N)nn2cccnc12)c1cc(Cl)c2cncn2c1N1C[C@H](O)C[C@H](C#N)C1 (stereo partly shown) [Example 157, trifluoroacetate salt] , pIC50 observed: > 7.00

Memo: COC1CCN(c2c(C(C)NC(=O)c3c(N)nn4cccnc34)cc(Cl)c3cncn23)CC1 (racemic) , reported pIC50: > 7.00

// recorded pIC50 for CC(NC(=O)c1c(N)nn2cccnc12)c1cc(Cl)c2cn[nH]c2c1N1CC[C@@H](NS(C)(=O)=O)C1 (stereo partly shown) [Example 96B, trifluoroacetate] : > 7.00

// field: pIC50; key: COC1CC=C(c2c(C(C)NC(=O)c3c(N)nn4cccnc34)cc(Cl)c3cn[nH]c23)CC1 (stereo not shown) [Example 100, trifluoroacetate] ; value = > 7.00

CC(NC(=O)c1c(N)nn2cccnc12)c1cc(Cl)c2cncn2c1C1CCCCC1 (racemic) [Example 183, trifluoroacetate salt] yielded pIC50 of > 6.30

pIC50 for CC(NC(=O)c1c(N)nn2cccnc12)c1cc(Cl)c2cncn2c1N1CCN(C)C(=O)C1 (racemic) [Example 154, trifluoroacetate salt] is > 6.30

Entry CC(NC(=O)c1c(N)nn2cccnc12)c1cc(Cl)c2c(Cl)cnn2c1N1CCS(=O)(=O)C(C)C1 (stereo not shown) [Example 112A, trifluoroacetate] , pIC50 reported as > 7.00

Form field pIC50, entry CCOc1c(C(C)NC(=O)c2c(N)nn3cccnc23)cc(Cl)c2cn(CC(C)C)nc12 (stereo not shown) [Example 9a, trifluoroacetate] : > 5.70

pIC50 reported for this molecule CC(NC(=O)c1c(N)nn2cccnc12)c1cc(Cl)c2ccnn2c1N1CCCS(=O)(=O)CC1 (stereo not shown) [Example 109, trifluoroacetate] : > 7.00
